// values below are reported protein stability index
B1: MYL5 (parent)
chain: FQFASIDVAGNLDYKALSYVITHG

Variants of: B1
procedure summary: protein stability index of a GFP-peptide fusion (GPS, HEK-293T) (PSI 1-6); higher = more stable;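 also: lentivirally expressed fusions sorted by FACS into six bins by GFP to DsRed ratio, PSI derived from sequencing read proportions per bin multiplied by bin number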
conditions: c terminus: a fixed tail appended
measurement kind: protein stability index

F3G: 3
S5A: 3.09
G10F: 2.96
K15I: 2.98
